Where these numbers come from: ChEMBL document CHEMBL3433997

Target Entity: Solute carrier family 2, facilitated glucose transporter member 1 (Homo sapiens)
Assay Name: ST_JUDE_LEISH: Cytotoxicity at 2uM final concentration against transgenic Leishmania Mexicana promastigotes LmGLUT1 that are glucose transport deficient and complemented with the human glucose transporter GLUT1. Activity is measured by DNA content using SYBR green in vitro
Assay type: functional
The entries below are paired with their reported inhibition.
Give the quantity in %, number only.

Use the examples below as a reference point.
CCn1c(-c2nonc2N)nc2c(-c3cccc(NC(=O)Nc4ccc(C(F)(F)F)cc4)c3)ncc(OCCCN)c21 :: 2.98
O=C(NC1CCN(CC2(c3ccccc3)CCCC2)CC1)c1n[nH]cc1Cl :: 0.19
CN(C)Cc1ccc(-c2ccc3c(Nc4ccc(Cl)cc4F)ccnc3c2)o1 :: -1.45
CN(C)CCNC(=O)N1CCCN(c2ncnc3cc(-c4ccccc4)sc23)CC1 :: 8.06
O=C(c1ccc(-c2ccc(-c3nc4ccccc4[nH]3)s2)cc1)N1CCCCC1CN1CCC(O)C1 (centres undefined) :: 3.07

Requested read-out: inhibition. Entry: `c1ccc2[nH]c(-c3ccc(-c4ccc(CNC5CC5)cc4)s3)nc2c1`
0.93

And then `Cc1ccc(Oc2ccc(CNc3nc(Nc4cccc(F)c4)nc(Nc4cccc(F)c4)n3)cc2)cc1` , what is it?
8.54

Would you mind doing `Cc1ccc(C)c(CC(=O)N2CCC(n3c(C)nc4ccc(F)cc43)CC2)c1` as well?
4.03

Can you handle `NC(=O)C1CCN(Cc2ccc(-c3cccc(-c4nc5cc(F)ccc5[nH]4)c3)cc2)CC1` next?
-0.89
